Source: ChEMBL document CHEMBL4152366

- Test target: 11-beta-hydroxysteroid dehydrogenase 1 (Homo sapiens, UniProt P28845)
- Sequence (P28845 whole entry): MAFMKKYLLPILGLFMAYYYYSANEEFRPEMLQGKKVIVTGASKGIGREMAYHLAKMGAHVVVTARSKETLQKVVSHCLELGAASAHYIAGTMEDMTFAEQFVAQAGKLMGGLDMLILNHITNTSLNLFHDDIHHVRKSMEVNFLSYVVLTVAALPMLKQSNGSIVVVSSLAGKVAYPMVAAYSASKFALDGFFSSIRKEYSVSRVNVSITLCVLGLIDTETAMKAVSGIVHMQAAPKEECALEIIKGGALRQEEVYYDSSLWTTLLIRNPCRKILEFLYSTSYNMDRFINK
- Measurement description: Inhibition of human 11beta-HSD1 expressed in HEK293 cell lysates using radiolabeled cortisone as substrate incubated for 10 mins by scintillation counting method
Quantity name: IC50

Molecule: CCOc1ccc(C[C@H](N)C(=O)N2CCC[C@@H]2C(=O)NC2C3CC4CC(C3)CC2C4)cc1 (stereo partly drawn)
Recorded result: 373 nM

Molecule: CC(=O)N[C@@H](Cc1ccc(C#N)cc1)C(=O)N1CCC[C@@H]1C(=O)NC1C2CC3CC(C2)CC1C3 (stereo partly drawn)
Recorded result: 197 nM

Molecule: CC(=O)N[C@@H](Cc1ccc(F)cc1)C(=O)N1CCC[C@@H]1C(=O)NC1C2CC3CC(C2)CC1C3 (stereo partly drawn)
Recorded result: 266 nM
